FYI, the data here is from the supplement of paper PMC8975748.

# Test system: Saccharomyces cerevisiae BY4741 SeMeCo community
# EXPERIMENT_NOTES: z-score of subpopulation abundance vs DMSO median, subpopulation auxotrophic for H; higher = larger share of this subpopulation than in DMSO controls
# MEASUREMENT_CONTEXT: 10 µM; 24 h; SM minimal medium; subpopulation (auxotrophy): H

>  <COMPOUND>
O=C(Nc1cc(Cl)cc(Cl)c1O)c1c(O)c(Cl)cc(Cl)c1Cl [Oxyclozanide]

>  <TGT>
Saccharomyces cerevisiae BY4741 SeMeCo community

>  <z-score of subpopulation abundance>
-2.53

$$$$
>  <COMPOUND>
O=C1OCCN1/N=C/c1ccc([N+](=O)[O-])o1

>  <TGT>
Saccharomyces cerevisiae BY4741 SeMeCo community

>  <z-score of subpopulation abundance>
3.6

$$$$
>  <COMPOUND>
CC1(C)S[C@@H]2[C@H](NC(=O)[C@H](N)c3ccccc3)C(=O)N2[C@H]1C(=O)O [Ampicillin Trihydrate]

>  <TGT>
Saccharomyces cerevisiae BY4741 SeMeCo community

>  <z-score of subpopulation abundance>
0.41

$$$$
>  <COMPOUND>
COc1cc([C@@H]2c3cc4c(cc3[C@@H](O[C@@H]3O[C@@H]5CO[C@@H](C)O[C@H]5[C@H](O)[C@H]3O)[C@H]3COC(=O)[C@H]23)OCO4)cc(OC)c1O [Etoposide]

>  <TGT>
Saccharomyces cerevisiae BY4741 SeMeCo community

>  <z-score of subpopulation abundance>
0.15

$$$$

###

# z-score of subpopulation abundance per record follows
# Test system: Saccharomyces cerevisiae BY4741 SeMeCo community
# EXPERIMENT_NOTES: z-score of subpopulation abundance vs DMSO median, subpopulation auxotrophic for HUM; higher = larger share of this subpopulation than in DMSO controls
# MEASUREMENT_CONTEXT: 10 µM; 24 h; SM minimal medium; subpopulation (auxotrophy): HUM
PARAMETER: z-score of subpopulation abundance

>  <MOLECULE>
COCCCN1CCC(NC(=O)c2cc(Cl)c(N)c3c2OCC3)CC1 [Prucalopride Succinate]

>  <RECORDED_VALUE>
1.42

$$$$
>  <MOLECULE>
NC(=O)c1cn(Cc2c(F)cccc2F)nn1 [Rufinamide]

>  <RECORDED_VALUE>
0.45

$$$$
>  <MOLECULE>
COc1ccc(C(Cl)=C(c2ccc(OC)cc2)c2ccc(OC)cc2)cc1

>  <RECORDED_VALUE>
0.82

$$$$
>  <MOLECULE>
O=C(CCCN1CC=C(n2c(=O)[nH]c3ccccc32)CC1)c1ccc(F)cc1

>  <RECORDED_VALUE>
-0.23

$$$$
>  <MOLECULE>
CCCCCCCCCCCC(=O)O

>  <RECORDED_VALUE>
-0.04

$$$$
>  <MOLECULE>
Cc1nc2n(c(=O)c1CCN1CCC(c3noc4cc(F)ccc34)CC1)CCCC2

>  <RECORDED_VALUE>
1.02

$$$$
>  <MOLECULE>
COc1ccc(C2CNC(=O)C2)cc1OC1CCCC1 (stereo not drawn) [S- (+)-Rolipram]

>  <RECORDED_VALUE>
-0.99

$$$$
>  <MOLECULE>
CC(=O)OCC1=C(C(=O)O)N2C(=O)[C@@H](NC(=O)CSc3ccncc3)[C@H]2SC1

>  <RECORDED_VALUE>
0.27

$$$$
>  <MOLECULE>
CCn1cc(C(=O)O)c(=O)c2cc(F)c(N3CCNCC3)cc21

>  <RECORDED_VALUE>
0.46

$$$$
